System: Staphylococcus aureus MS353AO
test_method_notes: Minimum inhibitory concentration (MIC), Staphylococcus aureus MS353AO
Format: cell-based
experimental_context: macrolide resistant strain A group
reported_metric: MIC (µg/mL)
One number for each entry, in µg/mL.

Write down the reported MIC (system: Staphylococcus aureus MS353AO) of CCC1OC(=O)CC(O)C(C)C(OC2OC(C)CC(N(C)C)C2O)C(CC=O)CC(C)C(=O)/C=C/C(C)=C/C1COC1OC(C)CC(OC)C1OC (stereo not shown)
50

Write down the reported MIC (system: Staphylococcus aureus MS353AO) of CCC1OC(=O)CC(O)C(C)C(OC2OC(C)CC(N(C)C)C2O)C(CC=O)CC(C)C(=O)/C=C/C(C)=C/C1COC1OC(C)C(O)C(OC)C1OC (stereo not shown)
50

# evaluate next
Write down the reported MIC (system: Staphylococcus aureus MS353AO) of CCC1OC(=O)CC(O)C(C)C(OC2OC(C)C(O)C(N(C)C)C2O)C(CC=O)CC(C)C(=O)/C=C/C(C)=C/C1COC1OC(C)CC(OC)C1OC (stereo not shown)
6.3
